target.entity: T1, TNFR1 (Homo sapiens, UniProt P19438)
T1 chain: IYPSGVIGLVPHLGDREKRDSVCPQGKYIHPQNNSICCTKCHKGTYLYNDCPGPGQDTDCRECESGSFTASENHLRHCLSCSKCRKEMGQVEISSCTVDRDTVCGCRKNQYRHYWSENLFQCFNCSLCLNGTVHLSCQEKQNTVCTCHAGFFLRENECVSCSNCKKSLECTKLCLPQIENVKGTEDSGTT
assay.info: yeast display SC50
assay.metric: apparent Kd (screen) (nM)
Respond numerically; units are nM and should not be typed.

q: Look up apparent Kd (screen): E43H (designed binder) MTLQELLREEALRRAEAEAFRYALELLAEKFPEQKEYLLDLAHEIESQIRSLSGVDVEDVRKFLDKEWAWVKELLAEHPAELAEVEAARAARLAELRAEVEAKVAA
a: 0.718

q: Proceed to A106L (designed binder) MTLQELLREEALRRAEAEAFRYALELLAEKFPEQKEYLLDLAEEIESQIRSLSGVDVEDVRKFLDKEWAWVKELLAEHPAELAEVEAARAARLAELRAEVEAKVAL
a: 0.539
